Lab note: IC50 readings collected with Norepinephrine transporter (Rattus norvegicus) for the following compounds.
Sequence (Q9WTR4 whole entry): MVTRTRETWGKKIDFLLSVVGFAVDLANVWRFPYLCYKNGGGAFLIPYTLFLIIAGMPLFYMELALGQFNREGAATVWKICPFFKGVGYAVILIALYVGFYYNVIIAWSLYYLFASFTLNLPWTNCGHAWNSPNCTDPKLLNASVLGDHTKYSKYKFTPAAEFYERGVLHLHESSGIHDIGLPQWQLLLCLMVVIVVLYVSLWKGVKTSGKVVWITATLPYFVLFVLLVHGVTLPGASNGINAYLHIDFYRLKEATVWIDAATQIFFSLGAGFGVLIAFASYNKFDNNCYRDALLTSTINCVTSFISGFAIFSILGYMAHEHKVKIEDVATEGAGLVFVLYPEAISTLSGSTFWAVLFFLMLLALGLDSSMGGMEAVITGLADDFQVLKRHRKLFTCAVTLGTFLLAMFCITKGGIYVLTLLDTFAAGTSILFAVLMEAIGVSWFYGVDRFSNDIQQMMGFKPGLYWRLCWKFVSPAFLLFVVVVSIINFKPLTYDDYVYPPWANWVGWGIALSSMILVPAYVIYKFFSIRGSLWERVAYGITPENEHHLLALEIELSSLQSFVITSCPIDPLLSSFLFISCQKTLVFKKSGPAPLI
Report only the number, with the unit µM understood.

For reference, reported IC50 for COc1ccc(OC(=O)C2C(c3ccc(C)cc3)CC3CCC2N3C)cc1 (configuration not stated) stands at 3.15

For reference, reported IC50 for CN1C2CCC1C(C(=O)N1CCCO1)C(c1ccc(I)cc1)C2 (configuration not stated) stands at 0.357

For reference, reported IC50 for CN1C2CCC1C(C(=O)N1CCCCC1)C(c1ccc(Cl)cc1)C2 (configuration not stated) stands at 1.75

For reference, reported IC50 for CON(C)C(=O)C1C(c2ccc(Cl)cc2)CC2CCC1N2C (configuration not stated) stands at 0.549

For reference, reported IC50 for COC(=O)C1C(c2ccc(Cl)c(Cl)c2)CC2CCC1N2C (configuration not stated) stands at 0.018

For reference, reported IC50 for CN1C2CCC1C(C(=O)Oc1ccccc1)C(OC(=O)c1ccccc1)C2 (configuration not stated) stands at 31

For reference, reported IC50 for CCC(CC)OC(=O)C1C(c2ccc(C)cc2)CC2CCC1N2C (configuration not stated) stands at 3.44

Reference source for all entries: ChEMBL document CHEMBL1128444
